- Test system: Streptococcus pneumoniae
- Experiment: Antibacterial activity against telethromycin-resistant Streptococcus pneumoniae 3488 expressing erm gene by NCCLS method
- Assay type: functional
Exercise: for every item that follows, state its recorded MIC.
Just the number please, in mg/L, no unit attached.

Exam item: Returns the measured MIC for the input molecule. Input: `C=CCN(C)[C@H]1C[C@@H](C)O[C@@H](O[C@@H]2[C@@H](C)[C@H](OC(=O)Cc3cccnc3)[C@@H](C)C(=O)O[C@H](CC)[C@@]3(C)OC(=O)N(CCCCn4cnc5ncccc54)[C@@H]3[C@@H](C)C(=O)[C@H](C)C[C@@]2(C)OC)[C@@H]1O`
Marked response: 0.25

Exam item: Queued: `C=CCN(C)[C@H]1C[C@@H](C)O[C@@H](O[C@@H]2[C@@H](C)[C@H](OC(=O)Cc3ccccn3)[C@@H](C)C(=O)O[C@H](CC)[C@@]3(C)OC(=O)N(CCCCn4cnc(-c5ccc(N)nc5)c4)[C@@H]3[C@@H](C)C(=O)[C@H](C)C[C@@]2(C)OC)[C@@H]1O`
Marked response: 0.03

Exam item: Queued: `C=CCN(C)[C@H]1C[C@@H](C)O[C@@H](O[C@@H]2[C@@H](C)[C@H](OC(=O)Cc3ccccn3)[C@@H](C)C(=O)O[C@H](CC)[C@@]3(C)OC(=O)N(CCCCn4ccc5cccnc54)[C@@H]3[C@@H](C)C(=O)[C@H](C)C[C@@]2(C)OC)[C@@H]1O`
Marked response: 0.5

Exam item: Queued: `C=CCN(C)[C@H]1C[C@@H](C)O[C@@H](O[C@@H]2[C@@H](C)[C@H](OC(=O)Cc3ccccn3)[C@@H](C)C(=O)O[C@H](CC)[C@@]3(C)OC(=O)N(CCCCn4cnc(-c5ccco5)c4)[C@@H]3[C@@H](C)C(=O)[C@H](C)C[C@@]2(C)OC)[C@@H]1O`
Marked response: 0.5

---

- Test system: Streptococcus pneumoniae
- Experiment: Antibacterial activity against telethromycin-resistant Streptococcus pneumoniae 3488 expressing erm gene by NCCLS method
- Type: functional
Exercise: for every item that follows, state its recorded MIC.
Just the number please, in µg/mL, no unit attached.

Exam item: Returns the measured MIC for the input compound. Input: `C=CCN(C)[C@H]1C[C@@H](C)O[C@@H](O[C@@H]2[C@@H](C)[C@H](OC(=O)Cc3ccccn3)[C@@H](C)C(=O)O[C@H](CC)[C@@]3(C)OC(=O)N(CCCCn4cnc(-c5ccnc(N)c5)c4)[C@@H]3[C@@H](C)C(=O)[C@H](C)C[C@@]2(C)OC)[C@@H]1O`
Marked response: 0.125

Exam item: Queued: `C=CCN(C)[C@H]1C[C@@H](C)O[C@@H](O[C@@H]2[C@@H](C)[C@H](OC(=O)Cc3ccccn3)[C@@H](C)C(=O)O[C@H](CC)[C@@]3(C)OC(=O)N(CCCCn4cncc4-c4ccco4)[C@@H]3[C@@H](C)C(=O)[C@H](C)C[C@@]2(C)OC)[C@@H]1O`
Marked response: 0.25

Exam item: Queued: `C=CCN(C)[C@H]1C[C@@H](C)O[C@@H](O[C@@H]2[C@@H](C)[C@H](OC(=O)Cc3ccccn3)[C@@H](C)C(=O)O[C@H](CC)[C@@]3(C)OC(=O)N(CCCCn4cnc5ncccc54)[C@@H]3[C@@H](C)C(=O)[C@H](C)C[C@@]2(C)OC)[C@@H]1O`
Marked response: 0.125

Exam item: Queued: CC[C@H]1OC(=O)[C@H](C)C(=O)[C@H](C)[C@@H](O[C@@H]2O[C@H](C)C[C@H](N(C)C)[C@H]2O)[C@](C)(OC)C[C@@H](C)C(=O)[C@H](C)[C@H]2N(CCCCn3cnc(-c4cccnc4)c3)C(=O)O[C@]12C [TELITHROMYCIN]
Marked response: 8

---

- System: Streptococcus pneumoniae
- Experiment: Antibacterial activity against telethromycin-resistant Streptococcus pneumoniae 217 expressing erm gene by NCCLS method
- Assay type: functional
Exercise: for every item that follows, state its recorded MIC.
Just the number please, in µg/mL, no unit attached.

Exam item: Returns the measured MIC for the input compound. Input: `C=CCN(C)[C@H]1C[C@@H](C)O[C@@H](O[C@@H]2[C@@H](C)[C@H](OC(=O)Cc3ccccn3)[C@@H](C)C(=O)O[C@H](CC)[C@@]3(C)OC(=O)N(CCCCn4cnc(-c5ccc(N)nc5)c4)[C@@H]3[C@@H](C)C(=O)[C@H](C)C[C@@]2(C)OC)[C@@H]1O`
Marked response: 0.06

Exam item: Queued: `CC[C@H]1OC(=O)[C@H](C)C(=O)[C@H](C)[C@@H](O[C@@H]2O[C@H](C)C[C@H](N(C)C)[C@H]2O)[C@](C)(OC)C[C@@H](C)C(=O)[C@H](C)[C@H]2N(CCCCn3cnc(-c4cccnc4)c3)C(=O)O[C@]12C`
Marked response: 4

Exam item: Queued: `C=CCN(C)[C@H]1C[C@@H](C)O[C@@H](O[C@@H]2[C@@H](C)[C@H](OC(=O)Cc3ccccn3)[C@@H](C)C(=O)O[C@H](CC)[C@@]3(C)OC(=O)N(CCCCn4ccc5cccnc54)[C@@H]3[C@@H](C)C(=O)[C@H](C)C[C@@]2(C)OC)[C@@H]1O`
Marked response: 1

Exam item: Queued: `C=CCN(C)[C@H]1C[C@@H](C)O[C@@H](O[C@@H]2[C@@H](C)[C@H](OC(=O)Cc3ccccn3)[C@@H](C)C(=O)O[C@H](CC)[C@@]3(C)OC(=O)N(CCCCn4cncc4-c4ccco4)[C@@H]3[C@@H](C)C(=O)[C@H](C)C[C@@]2(C)OC)[C@@H]1O`
Marked response: 0.5

---

- System: Streptococcus pneumoniae
- Experiment: Antibacterial activity against telethromycin-resistant Streptococcus pneumoniae 5051 expressing erm gene by NCCLS method
- Type: functional
Hi! Just check whether MIC is below 0.2 µg/mL. Below gives class 1, equal or above gives class 0.

Exam item: Consider the compound `C=CCN(C)[C@H]1C[C@@H](C)O[C@@H](O[C@@H]2[C@@H](C)[C@H](OC(=O)Cc3ccccn3)[C@@H](C)C(=O)O[C@H](CC)[C@@]3(C)OC(=O)N(CCCCn4cnc5ncccc54)[C@@H]3[C@@H](C)C(=O)[C@H](C)C[C@@]2(C)OC)[C@@H]1O` . Is its MIC strictly less than 0.2 µg/mL?
Marked response: class 1

Exam item: Queued: `C=CCN(C)[C@H]1C[C@@H](C)O[C@@H](O[C@@H]2[C@@H](C)[C@H](OC(=O)Cc3cccnc3)[C@@H](C)C(=O)O[C@H](CC)[C@@]3(C)OC(=O)N(CCCCn4cnc5ncccc54)[C@@H]3[C@@H](C)C(=O)[C@H](C)C[C@@]2(C)OC)[C@@H]1O`
Marked response: class 0

Exam item: Queued: `C=CCN(C)[C@H]1C[C@@H](C)O[C@@H](O[C@@H]2[C@@H](C)[C@H](OC(=O)Cc3ccccn3)[C@@H](C)C(=O)O[C@H](CC)[C@@]3(C)OC(=O)N(CCCCn4ccc5cccnc54)[C@@H]3[C@@H](C)C(=O)[C@H](C)C[C@@]2(C)OC)[C@@H]1O`
Marked response: class 0

Exam item: Queued: `C=CCN(C)[C@H]1C[C@@H](C)O[C@@H](O[C@@H]2[C@@H](C)[C@H](OC(=O)Cc3ccccn3)[C@@H](C)C(=O)O[C@H](CC)[C@@]3(C)OC(=O)N(CCCCn4cnc(-c5ccnc(N)c5)c4)[C@@H]3[C@@H](C)C(=O)[C@H](C)C[C@@]2(C)OC)[C@@H]1O`
Marked response: class 1

Exam item: Queued: `C=CCN(C)[C@H]1C[C@@H](C)O[C@@H](O[C@@H]2[C@@H](C)[C@H](OC(=O)Cc3ccccn3)[C@@H](C)C(=O)O[C@H](CC)[C@@]3(C)OC(=O)N(CCCCn4cnc(-c5ccco5)c4)[C@@H]3[C@@H](C)C(=O)[C@H](C)C[C@@]2(C)OC)[C@@H]1O`
Marked response: class 0

Exam item: Queued: `C=CCN(C)[C@H]1C[C@@H](C)O[C@@H](O[C@@H]2[C@@H](C)[C@H](OC(=O)Cc3ccccn3)[C@@H](C)C(=O)O[C@H](CC)[C@@]3(C)OC(=O)N(CCCCn4cnc(-c5ccc(N)nc5)c4)[C@@H]3[C@@H](C)C(=O)[C@H](C)C[C@@]2(C)OC)[C@@H]1O`
Marked response: class 1

Exam item: Queued: `C=CCN(C)[C@H]1C[C@@H](C)O[C@@H](O[C@@H]2[C@@H](C)[C@H](OC(=O)Cc3ccccn3)[C@@H](C)C(=O)O[C@H](CC)[C@@]3(C)OC(=O)N(CCCCn4cncc4-c4ccco4)[C@@H]3[C@@H](C)C(=O)[C@H](C)C[C@@]2(C)OC)[C@@H]1O`
Marked response: class 0

Exam item: Queued: `CC[C@H]1OC(=O)[C@H](C)C(=O)[C@H](C)[C@@H](O[C@@H]2O[C@H](C)C[C@H](N(C)C)[C@H]2O)[C@](C)(OC)C[C@@H](C)C(=O)[C@H](C)[C@H]2N(CCCCn3cnc(-c4cccnc4)c3)C(=O)O[C@]12C`
Marked response: class 0
